RUN DESCRIPTION: Volatility of perfuming compounds (Tables 4 to 10), with top/middle/bottom note type
Assay type: physicochemical
CONDITIONS USED: note type (Top/Middle/Bottom) by volatility; perfuming compounds having a green note
VALUE TYPE: Type

Before answering, review these 10 worked examples.
>  <COMPOUND>
CCCCC/C=C\CCC=O [(Z)-4-DECENAL]

>  <REPORTED RESULT>
Top

$$$$
>  <COMPOUND>
C=CC(C)(CCC=C(C)C)OC(C)=O (racemic)

>  <REPORTED RESULT>
Top

$$$$
>  <COMPOUND>
CC(CC=O)CC(C)(C)C (racemic) [(+−)-3,5,5-TRIMETHYLHEXANAL]

>  <REPORTED RESULT>
Top

$$$$
>  <COMPOUND>
CC/C=C\CCCCC=O [(Z)-6-NONENAL]

>  <REPORTED RESULT>
Top

$$$$
>  <COMPOUND>
COC(C)(C)[C@H]1CC=C(C)CC1

>  <REPORTED RESULT>
Top

$$$$
>  <COMPOUND>
CCCC(C)COC(=O)C(C)CCC (stereo not shown) [2-METHYLPENTYL 2-METHYLPENTANOATE]

>  <REPORTED RESULT>
Top

$$$$
>  <COMPOUND>
C=CCOC(=O)CCCCCC [ALLYL HEPTANOATE]

>  <REPORTED RESULT>
Top

$$$$
>  <COMPOUND>
CCCCCCOC(=O)c1ccccc1O [HEXYL 2-HYDROXYBENZOATE]

>  <REPORTED RESULT>
Bottom

$$$$
>  <COMPOUND>
C=CC(O)CCCCC (racemic) [(+−)-1-octen-3-ol]

>  <REPORTED RESULT>
Top

$$$$
>  <COMPOUND>
CC/C=C\CCCCCO [(Z)-6-NONEN-1-OL]

>  <REPORTED RESULT>
Bottom

$$$$

Fill in the blank: the reported Type of CC(C)=CC1CC(C)CCO1 (stereo not shown) is ____.
Top

Fill in the blank: the reported Type of CCCCCC=O is ____.
Top
